Literature survey of pIC50 (system: the protein given by its sequence).
Target protein (sequence): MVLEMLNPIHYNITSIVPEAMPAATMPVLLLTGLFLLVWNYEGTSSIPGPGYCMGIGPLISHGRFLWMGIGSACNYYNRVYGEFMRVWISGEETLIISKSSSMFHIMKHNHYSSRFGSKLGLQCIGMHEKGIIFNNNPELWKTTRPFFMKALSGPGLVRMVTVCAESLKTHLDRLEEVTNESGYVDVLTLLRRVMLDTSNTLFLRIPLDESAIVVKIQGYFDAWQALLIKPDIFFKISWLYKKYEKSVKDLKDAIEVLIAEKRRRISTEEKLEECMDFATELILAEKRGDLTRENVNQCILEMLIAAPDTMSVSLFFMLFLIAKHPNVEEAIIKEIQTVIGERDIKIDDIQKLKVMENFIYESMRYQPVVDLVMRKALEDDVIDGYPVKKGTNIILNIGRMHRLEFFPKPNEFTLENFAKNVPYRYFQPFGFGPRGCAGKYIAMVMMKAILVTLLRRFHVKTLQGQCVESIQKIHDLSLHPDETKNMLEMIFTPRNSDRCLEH
pIC50: −log10 of the molar value.

smiles-input | target-under-test | comparator | pIC50
O=C(OC[C@@H](O)[C@@H](O)COC(=O)/C(Cc1ccc(O)cc1)=N\O)/C(Cc1ccc(O)cc1)=N\O | the protein given by its sequence | < | 4.00
CC(C)=CCc1cc2cc(-c3cc(O)cc(O)c3)oc2cc1O | the protein given by its sequence | = | 4.51
CCCCCCC[C@]1(c2ccncc2)CCC(=O)NC1=O | the protein given by its sequence | = | 5.49
N#Cc1ccc(Cn2cc(-c3ccccc3)nn2)cc1 | the protein given by its sequence | = | 5.47
CC(=C(c1ccc(N)cc1)c1ccc(NCC(N)=O)cc1)c1ccc([N+](=O)[O-])cc1 | the protein given by its sequence | = | 6.19

====

Literature survey of IC50 (system: UniProt:P11511).

compound | IC50
O=C(NCc1ccccc1)OC(Cn1ccnc1)c1ccccc1 (stereo not given) | 820 nM
C[C@H]1C2=CC(=O)CCC(C)(O2)[C@H]2CC[C@]3(C)C(=O)CC[C@H]3[C@H]12 (stereo not given in full) | 9800 nM
COC(C)(C)c1cncc(-c2ccc3c(c2)CCc2nnc(C)n2-3)c1 | 11200 nM
Cc1nc2c(cc1C#N)C(Nc1ccc(Cl)cc1)Oc1ccc([N+](=O)[O-])cc1-2 (stereo not given) | 678 nM
O=[N+]([O-])c1cccc(S(=O)(=O)NCCc2c(C(c3ccccc3O)c3[nH]c4ccccc4c3CCNS(=O)(=O)c3cccc([N+](=O)[O-])c3)[nH]c3ccccc23)c1 | 1700 nM
Cc1cc(Cn2ccnc2)c2ccc3[nH]ccc3c2n1 | 6 nM
Brc1ccc2[nH]c(-c3ccccc3)cc2c1 | 39700 nM
Fc1cc(-c2cccnc2)cc2c1-n1cnnc1CC2 | > 10000 nM
CCC(=C(c1ccc(N)cc1)c1ccc(NCC(N)=O)cc1)c1ccc([N+](=O)[O-])cc1 | 287 nM
CCOC(=O)c1cc(-c2ccc(OC)cc2)nc2c1ccc1[nH]ccc12 | > 10000 nM

====

Literature survey of pIC50 (system: Aromatase (Homo sapiens, UniProt P11511)).
pIC50: −log10 of the molar value.
observable: pIC50

molecule | target-under-test | comparator | quantitative-readout
O=S(=O)(NCCc1c(C(c2ccc(F)cc2)c2[nH]c3ccccc3c2CCNS(=O)(=O)c2ccc(Br)cc2)[nH]c2ccccc12)c1ccc(Br)cc1 | Aromatase (Homo sapiens, UniProt P11511) | = | 5.12
CC(C)=C(c1ccncc1)c1ccc(-c2ccc(O)c(O)c2)cc1 | Aromatase (Homo sapiens, UniProt P11511) | = | 5.02
Clc1ccc(CC(Cc2ccc(-c3ccccc3)cc2)n2ccnc2)c(Cl)c1 (centres undefined) | Aromatase (Homo sapiens, UniProt P11511) | = | 5.91
COc1ccc(S(=O)(=O)NCCc2c(C(c3ccc(O)cc3)c3[nH]c4ccccc4c3CCNS(=O)(=O)c3ccc(OC)cc3)[nH]c3ccccc23)cc1 | Aromatase (Homo sapiens, UniProt P11511) | = | 6.15
COc1cncc(-c2ccc3ccc(O)cc3c2Cl)c1 | Aromatase (Homo sapiens, UniProt P11511) | < | 5.70
O=C1/C(=C/c2cccc(OCCCn3ccnc3)c2)Cc2ccccc21 | Aromatase (Homo sapiens, UniProt P11511) | = | 6.15
COc1ccc(OC)c2c1c(C)cc(=O)n2C | Aromatase (Homo sapiens, UniProt P11511) | = | 6.02
O=C1CCc2cc(-c3cccnc3)ccc2N1 | Aromatase (Homo sapiens, UniProt P11511) | < | 5.30
Oc1ccc2ccc(-c3cncnc3)c(Cl)c2c1 | Aromatase (Homo sapiens, UniProt P11511) | < | 5.70
